# Tested on: MS2 coat protein
# test.name: apparent KD of MS2 coat protein; designed switch direction (-1 OFF switch, 1 ON switch): 1; higher = weaker reporter binding
# experimental.context: input ligand: microRNA oligo, concentration not stated
readout.label: apparent KD of MS2 coat protein (µM)
Answers are plain numbers, in µM.

Would you please look over these solved cases?
input.sequence: CCAUAACAGUGAGGAUAUCGUUGCGAUAAGUGACGAGAAGGCAUUCAUGUGAAAUAAACAUACAUGAGGAUCACCCAUGUUGUA [Omei SS(NG)1 B] (Eterna round: R96, puzzle: Same State NG 1)
apparent KD of MS2 coat protein (µM): 0.0171

input.sequence: AACAGUCGACGAGGAUAUGGACGGACAGGUUUGCCUGUGCGGCUCACAUGAGGAUCACCCAUGUUCUAGAAGGCGUCACUGUGA [Matidia] (Eterna round: R96, puzzle: Same State NG 2)
apparent KD of MS2 coat protein (µM): 0.0793

input.sequence: GUUACAUGAGGAUCACCCAUGUAUGUGUGGGAGUAAGUGUCUUAGGAUAUCUAUUAUUUAAGUUAAGAGAAGGAAGAUUGUUGU [JMF's solution 23] (Eterna round: R96, puzzle: Same State NG 3)
apparent KD of MS2 coat protein (µM): 0.0947

input.sequence: UGAAUGGUGAUAGGAUAUACAUGAGGAAUCCUCGUAGAAGGAUCAUGACAUGAGGAUCACCCAUGUAGCGCUCAGAAGAGCGCA [Mat - Same State NG 1 - JL mod - D53] (Eterna round: R96, puzzle: Same State NG 1)
apparent KD of MS2 coat protein (µM): 0.0424

input.sequence: GGUAUCGGCACAGGAUAUGCUAUCCUUUGGGUAGCAGAAGGGUGGAACAUGAGGAUCACCCAUGUGGUGCCAGGGCGUGAGCCC [JL SSNG1 1.88] (Eterna round: R96, puzzle: Same State NG 1)
apparent KD of MS2 coat protein (µM): 0.125

For each of the sequences below, note its apparent KD of MS2 coat protein.
1. UGAAUAGUUACAGGAUAUGAUCCGAAAAUUGGGUCAGAAGGGUGGGUGUUGUGCGCUAUGUGCUACAUGAGGAUCACCCAUGUU [SameState NG1 #36] (Eterna round: R96, puzzle: Same State NG 1)
2. AGCUAUUAAUCAGGAUAUAGUGACAUGAGGAUCACCCAUGUAUUGAUGAUUAAAUGUGGUCACCGCUAGAAGGGAUUACUAACA [SameState NG2 #47] (Eterna round: R96, puzzle: Same State NG 2)
3. GCUCGAUGAGCGUUCUACAUGAGGAUCACCCAUGUUCGUGGGCAGGAUAUUUACAUGCAGAGUGUAGAGAAGGGCCCAUCGAGC [SameState NG3 #66] (Eterna round: R96, puzzle: Same State NG 3)
4. CAGAGCCCAUGGGCCUGACAUGAGGAUCACCCAUGUGGCUUUGAGGAUAUAAGCGGAAACAGCGCUUAGAAGGCGAAGCCUAAC [Rearisve] (Eterna round: R96, puzzle: Same State NG 3)

Key:
0.0225
0.0233
0.117
0.0141

This collection of values is drawn from the supplement of paper PMC9170038.
